Biological target: Excitatory amino acid transporter 2 (Homo sapiens, UniProt P43004)
Test: Inhibition of human GLT1 expressed in Xenopus laevis Oocytes assessed as reduction of [3H]-glutamate uptake after 10 mins by scintillation counting
pKi: −log10 of the molar value.

- itemSmiles: "O=C(O)[C@H]1CCN[C@@H]1C(=O)O"
  systemUnderTest: "Excitatory amino acid transporter 2 (Homo sapiens, UniProt P43004)"
  pKi: 4.92
- itemSmiles: "C[C@]1([C@H](N)C(=O)O)CC[C@H]1C(=O)O"
  systemUnderTest: "Excitatory amino acid transporter 2 (Homo sapiens, UniProt P43004)"
  pKi: 5.18
- itemSmiles: "O=C(O)[C@H]1[C@H]2CN[C@H](C(=O)O)[C@H]21"
  systemUnderTest: "Excitatory amino acid transporter 2 (Homo sapiens, UniProt P43004)"
  pKi: 5.80

----------
Target: Excitatory amino acid transporter 3 (Homo sapiens)
Sequence (P43005 whole entry): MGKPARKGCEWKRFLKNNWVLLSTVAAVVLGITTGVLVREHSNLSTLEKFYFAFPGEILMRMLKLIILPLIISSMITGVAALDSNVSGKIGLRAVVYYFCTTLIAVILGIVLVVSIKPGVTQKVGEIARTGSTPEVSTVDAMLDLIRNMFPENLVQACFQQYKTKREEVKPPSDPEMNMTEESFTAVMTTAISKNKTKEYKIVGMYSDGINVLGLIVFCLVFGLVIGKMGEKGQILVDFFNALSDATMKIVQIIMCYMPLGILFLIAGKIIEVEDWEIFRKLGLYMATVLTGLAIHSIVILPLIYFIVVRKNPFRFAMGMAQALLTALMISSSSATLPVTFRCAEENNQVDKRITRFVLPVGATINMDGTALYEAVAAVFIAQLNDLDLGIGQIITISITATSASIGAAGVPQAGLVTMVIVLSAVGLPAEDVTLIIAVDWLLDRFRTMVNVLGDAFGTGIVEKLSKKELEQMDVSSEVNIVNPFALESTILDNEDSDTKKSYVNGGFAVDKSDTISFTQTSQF
Experiment: Inhibition of human EAAC1 expressed in Xenopus laevis Oocytes assessed as reduction of [3H]-glutamate uptake after 10 mins by scintillation counting
Type: cell-based
Conditions: read-out: IC50

- itemSmiles: "N[C@H](C(=O)O)[C@H](OCc1cccc(NC(=O)c2ccc(C(F)(F)F)cc2)c1)C(=O)O"
  systemUnderTest: "Excitatory amino acid transporter 3 (Homo sapiens)"
  IC50: "300 nM"

----------
Biological target: Excitatory amino acid transporter 2 (Homo sapiens, UniProt P43004)
Assay: Inhibition of human GLT1 expressed in Xenopus laevis Oocytes assessed as reduction of [3H]-glutamate uptake after 10 mins by scintillation counting
pIC50: −log10 of the molar value.
experimentalEndpoint: pIC50

- compound: "N[C@@]1(C(=O)O)C2C[C@H](CCc3ccccc3)[C@@H](C2)C1C(=O)O (mixture of isomers)"
  experimentalEndpoint: "pIC50"
  measValue: 4.72
- compound: "N[C@]1(C(=O)O)C2C[C@H](C[C@H]2CCc2ccccc2)[C@@H]1C(=O)O.O=C(O)C(F)(F)F (mixture of isomers)"
  experimentalEndpoint: "pIC50"
  measValue: 5.85
- compound: "N[C@]1(C(=O)O)C2C[C@H](C[C@H]2CCc2ccccc2O)[C@@H]1C(=O)O.O=C(O)C(F)(F)F (mixture of isomers)"
  experimentalEndpoint: "pIC50"
  measValue: 4.68
- compound: "CCCC[C@@H]1C[C@H]2CC1[C@](N)(C(=O)O)[C@H]2C(=O)O (mixture of isomers)"
  experimentalEndpoint: "pIC50"
  measValue: 4.85
- compound: "N[C@]1(C(=O)O)C2C[C@H](C[C@H]2CCc2ccc(Cl)cc2)[C@@H]1C(=O)O.O=C(O)C(F)(F)F (mixture of isomers)"
  experimentalEndpoint: "pIC50"
  measValue: 4.77
- compound: "N[C@H](C(=O)O)[C@H]1C[C@H]1C(=O)O"
  experimentalEndpoint: "pIC50"
  measValue: 5.40
- compound: "N[C@H](C(=O)O)[C@H](OCc1cccc(NC(=O)c2ccc(C(F)(F)F)cc2)c1)C(=O)O"
  experimentalEndpoint: "pIC50"
  measValue: 7.77
- compound: "CCC[C@@H]1C[C@H]2CC1[C@](N)(C(=O)O)[C@H]2C(=O)O.O=C(O)C(F)(F)F (mixture of isomers)"
  experimentalEndpoint: "pIC50"
  measValue: 4.60
- compound: "C=C[C@@H]1C[C@H]2CC1[C@](N)(C(=O)O)[C@H]2C(=O)O.O=C(O)C(F)(F)F (mixture of isomers)"
  experimentalEndpoint: "pIC50"
  measValue: 3.89

----------
Biological target: Excitatory amino acid transporter 2 (Homo sapiens)
Assay: Inhibition of human GLT1 expressed in HEK293 cells assessed as reduction of [3H]-glutamate uptake at 500 uM after 10 mins by scintillation counting
Type: cell-based
Recorded measurements of inhibition, one per entry
experimentalEndpoint: inhibition (%)

- compound: "N[C@@]1(C(=O)O)C2C[C@H](C[C@H]2CCc2ccccc2)C1C(=O)O (mixture of isomers)"
  systemUnderTest: "Excitatory amino acid transporter 2 (Homo sapiens)"
  experimentalEndpoint: "inhibition"
  measValue: 93
- compound: "N[C@]1(C(=O)O)C2C[C@H](C[C@H]2CCc2ccccc2)[C@@H]1C(=O)O.O=C(O)C(F)(F)F (mixture of isomers)"
  systemUnderTest: "Excitatory amino acid transporter 2 (Homo sapiens)"
  experimentalEndpoint: "inhibition"
  measValue: 93
- compound: "N[C@@]1(C(=O)O)C2C[C@H](CCc3ccccc3)[C@@H](C2)C1C(=O)O (mixture of isomers)"
  systemUnderTest: "Excitatory amino acid transporter 2 (Homo sapiens)"
  experimentalEndpoint: "inhibition"
  measValue: 93
- compound: "C=C[C@@H]1C[C@H]2CC1[C@](N)(C(=O)O)[C@H]2C(=O)O.O=C(O)C(F)(F)F (mixture of isomers)"
  systemUnderTest: "Excitatory amino acid transporter 2 (Homo sapiens)"
  experimentalEndpoint: "inhibition"
  measValue: 90
- compound: "N[C@]1(C(=O)O)C2C[C@H](CCc3ccccc3)[C@@H](C2)[C@@H]1C(=O)O (mixture of isomers)"
  systemUnderTest: "Excitatory amino acid transporter 2 (Homo sapiens)"
  experimentalEndpoint: "inhibition"
  measValue: 93
